Catalogue of pIC50 values
- target: Macrophage colony-stimulating factor 1 receptor (Homo sapiens, UniProt P07333)
- Sequence (P07333 whole entry, the tested form may be a part): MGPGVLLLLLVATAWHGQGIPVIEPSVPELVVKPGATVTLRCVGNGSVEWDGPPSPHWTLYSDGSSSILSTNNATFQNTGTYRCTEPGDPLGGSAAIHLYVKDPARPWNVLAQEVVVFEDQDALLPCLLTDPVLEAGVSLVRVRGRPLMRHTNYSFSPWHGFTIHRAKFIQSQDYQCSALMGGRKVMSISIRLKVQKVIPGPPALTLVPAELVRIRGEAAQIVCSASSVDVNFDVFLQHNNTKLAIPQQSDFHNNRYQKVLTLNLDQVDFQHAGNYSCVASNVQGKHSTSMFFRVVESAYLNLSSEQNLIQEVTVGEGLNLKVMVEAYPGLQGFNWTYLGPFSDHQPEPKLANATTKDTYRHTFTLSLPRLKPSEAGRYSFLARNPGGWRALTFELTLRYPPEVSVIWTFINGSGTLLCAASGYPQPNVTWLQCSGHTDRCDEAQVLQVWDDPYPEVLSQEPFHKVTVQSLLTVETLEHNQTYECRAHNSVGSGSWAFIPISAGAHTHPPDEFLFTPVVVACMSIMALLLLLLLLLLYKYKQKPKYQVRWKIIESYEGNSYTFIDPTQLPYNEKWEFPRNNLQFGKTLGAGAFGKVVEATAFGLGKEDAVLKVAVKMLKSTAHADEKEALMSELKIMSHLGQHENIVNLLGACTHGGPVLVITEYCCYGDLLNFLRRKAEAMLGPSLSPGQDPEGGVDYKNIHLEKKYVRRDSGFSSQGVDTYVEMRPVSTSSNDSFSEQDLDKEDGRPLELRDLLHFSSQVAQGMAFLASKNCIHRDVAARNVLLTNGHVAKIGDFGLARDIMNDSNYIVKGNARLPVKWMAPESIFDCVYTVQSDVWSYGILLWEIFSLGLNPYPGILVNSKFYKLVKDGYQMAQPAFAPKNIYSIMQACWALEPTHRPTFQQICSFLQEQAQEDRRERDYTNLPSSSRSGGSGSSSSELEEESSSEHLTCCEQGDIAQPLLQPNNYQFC
- assayRemarks: Displacement of kinase tracer 236 from recombinant human His-tagged CSF1R cytoplasmic domain (538 to 910 residues) expressed in baculovirus-infected insect cells measured after 5 hrs by TR-FRET based LanthaScreen assay
pIC50: −log10 of the molar value.

Past entries and their recorded results:
| smilesInput | target | pIC50 |
| --- | --- | --- |
| Nc1ncnc2c3c(n(-c4ccc(NC(=O)Cc5cc(C(F)(F)F)ccn5)cc4)c12)CCC3 | Macrophage colony-stimulating factor 1 receptor (Homo sapiens, UniProt P07333) | 6.70 to 8.00 |
| COc1cc(-n2c3c(c4ncnc(N)c42)COC3)ccc1NC(=O)Cc1cc(C)ccc1F | Macrophage colony-stimulating factor 1 receptor (Homo sapiens, UniProt P07333) | 6.70 to 8.00 |
| COc1cc(-n2c3c(c4ncnc(N)c42)COC3)ccc1NC(=O)CN1C(=O)COc2ccccc21 | Macrophage colony-stimulating factor 1 receptor (Homo sapiens, UniProt P07333) | < 6.70 |
| COc1cc(-n2c3c(c4ncnc(N)c42)CCC3)ccc1NC(=O)Cn1nc(C)cc1C | Macrophage colony-stimulating factor 1 receptor (Homo sapiens, UniProt P07333) | 6.70 to 8.00 |
| Nc1ncnc2c3c(n(-c4ccc(CC(=O)Nc5ccc(OC(F)(F)F)cc5)cc4)c12)CCC3 | Macrophage colony-stimulating factor 1 receptor (Homo sapiens, UniProt P07333) | 6.70 to 8.00 |

Incoming: Sample COc1cc(-n2c3c(c4ncnc(N)c42)CCC3)ccc1NC(=O)Cc1ccc(OC)c(C(F)(F)F)c1 — what was its pIC50?
Outgoing: 6.70 to 8.00

Incoming: Can you check CC(=O)N1CCC(CC(=O)Nc2ccc(-n3c4c(c5ncnc(N)c53)CCC4)cc2)CC1 next?
Outgoing: < 6.70

Data provenance: ChEMBL document CHEMBL4418299
